- test-description: HsLin06_18 cytotoxicity assay (MTT)
- Format: cell-based
- condition-set: human, 24 h treatment, relative to 1% DMSO control, read-out: EC50 (half maximal effective concentration), cytotoxicity
Square brackets hold non-standard residues; d marks the D form. Peptide text beside a SMILES is read from it. Abu = CC[C@H](N)C(=O)O
endpoint-name: EC50 at 24 h

Task: Quick one: EC50 at 24 h for CC[C@H](NC(=O)[C@H](C)NC(=O)CNC(=O)CNC(=O)[C@H](Cc1ccc(O)cc1)NC(=O)[C@H](C)NC(=O)[C@@H](N)Cc1ccccc1)C(=O)N[C@@H](Cc1c[nH]cn1)C(=O)N[C@@H](Cc1ccc(O)cc1)C(=O)N[C@@H](CCC(N)=O)C(=O)N[C@@H](Cc1ccccc1)C(=O)N1CCC[C@H]1C(=O)N[C@@H](CO)C(=O)N[C@H](C(=O)N[C@@H](CCCCN)C(=O)N[C@@H](CC)C(=O)N[C@@H](Cc1ccccc1)C(=O)N[C@@H](CC)C(=O)N[C@@H](CCCCN)C(=O)O)C(C)C [HsLin06_18] (H-FAYGGA[Abu]HYQFPSVK[Abu]F[Abu]K-OH) ?
Result: > 50 µM
